Cited source for all entries: patent US20130131320A1

TARGET DESC: T1, soluble EGFR (human epithelial cell growth factor receptor 1, Her1) (human, UniProt P00533 25-645, limits assumed)
T1 construct: The metal chelate purification implies a His tag, but none is described; also called target antigen
MEASUREMENT NOTES: ITC, 50 uM Fv titrated into 5 uM soluble EGFR
QUANTITY: ΔH (kJ/mol)
The reply should be a number in kJ/mol, with the unit left off.

h528Fv 5.12.0 (other) VH: QVQLVQSGAEVKKPGASVKVSCKASGYTFTSYWMHWVRQAPGQGLEWMGNIWPGKGGTNYAEKFQKRVTMTRDTSISTAYMELSRLRSDDTAVYYCARSGGPYFFDYWGQGTLVTVSS VL: DIVMTQSPLSLPVTPGEPASISCRSSQNIVHNNGITYLEWYLQKPGQSPQLLIYKVSDRFSGVPDRFSGSGSGTDFTLKISRVEAEDVGVYYCFQGSHIPPTFGQGTKVEIKR    -69.9
h528Fv WT (other, Fv fragment: VH and VL co-expressed in E. coli BL21; Purified by metal chelate chromatography; the tag is not described; also called wild type humanized Fv) VH: QVQLVQSGAEVKKPGASVKVSCKASGYTFTSYWMHWVRQAPGQGLEWMGNIYPGSGGTNYAEKFKNRVTMTRDTSISTAYMELSRLRSDDTAVYYCARSGGPYFFDYWGQGTLVTVSS VL: DIVMTQSPLSLPVTPGEPASISCRSSQNIVHNNGITYLEWYLQKPGQSPQLLIYKVSDRFSGVPDRFSGSGSGTDFTLKISRVEAEDVGVYYCFQGSHIPPTFGQGTKVEIKR    -61.1

[in] For the binder h528Fv 5.11.T (other) VH: QVQLVQSGAEVKKPGASVKVSCKASGYTFTSYWMHWVRQAPGQGLEWMGNIWPGTGGTNYAEKFQQRVTMTRDTSISTAYMELSRLRSDDTAVYYCTRSGGPYFFDYWGQGTLVTVSS VL: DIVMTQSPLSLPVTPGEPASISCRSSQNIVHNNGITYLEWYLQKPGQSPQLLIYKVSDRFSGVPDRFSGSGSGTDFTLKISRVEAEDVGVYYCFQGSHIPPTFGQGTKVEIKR , what ΔH is on record?
[out] -83.5

[in] Same lookup for h528Fv 5.98.0 (other) VH: QVQLVQSGAEVKKPGASVKVSCKASGYTFTSYWMHWVRQAPGQGLEWMGNIWPGQGGTNYAEKFKSRVTMTRDTSISTAYMELSRLRSDDTAVYYCARSGGPYFFDYWGQGTLVTVSS VL: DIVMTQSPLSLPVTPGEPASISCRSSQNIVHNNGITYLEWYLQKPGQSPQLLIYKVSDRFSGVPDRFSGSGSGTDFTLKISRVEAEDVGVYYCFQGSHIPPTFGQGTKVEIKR , please.
[out] -76.8
